FYI, the data here is from patent US9187497B2.

pIC50: −log10 of the molar value.
For PARP (Homo sapiens), measured pIC50 is reported for the entries below.

API: value(readout=pIC50, system=PARP (Homo sapiens)) for record C[C@H]1C(=O)Nc2cc(CN3CCC(c4ccc(Cl)cc4)CC3)cnc2N1C ≤ 7.30

API: value(readout=pIC50, system=PARP (Homo sapiens)) for record O=C1Nc2cc(CN3CC=C(c4ccc(Cl)cc4)CC3)cnc2N2CCCC[C@@H]12 ≥ 7.90

API: value(readout=pIC50, system=PARP (Homo sapiens)) for record CCNC(=O)c1ccc(N2CCN(Cc3cnc4c(c3)NC(=O)[C@@H]3CCCN43)CC2)cc1 ≥ 7.90

API: value(readout=pIC50, system=PARP (Homo sapiens)) for record O=C(NC1CC1)c1ccc(N2CCN(Cc3cnc4c(c3)NC(=O)[C@@H]3CCCCN43)CC2)c(F)c1 ≥ 7.90

API: value(readout=pIC50, system=PARP (Homo sapiens)) for record O=C1Nc2cc(CN3CCC(c4ccc(Cl)cc4)CC3)cnc2N2CCCC[C@@H]12 ≤ 7.30

API: value(readout=pIC50, system=PARP (Homo sapiens)) for record N#Cc1ccc(N2CCN(Cc3cnc4c(c3)NC(=O)CC3CCCN43)CC2)cc1 (stereo not drawn) 7.40 to 7.80

====

The entries below come with measured melting point values attached.
Write down the numeric answer in °C and omit the unit.

CCOC(=O)c1ccc(N2CCN(Cc3cnc4c(c3)NC(=O)[C@@H]3CCCN43)CC2)cc1	242
CN(C)C(=O)c1ccc(N2CCN(Cc3cnc4c(c3)NC(=O)[C@@H]3CCCN43)CC2)cc1	99.2
O=C1Nc2cc(CN3CCN(c4ccc(C(=O)N5CCCC5)cc4)CC3)cnc2N2CCC[C@@H]12	121.3
N#Cc1ccc(N2CCN(Cc3cnc4c(c3)NC(=O)[C@@H]3CCCN43)CC2)cc1	252
CCNC(=O)c1ccc(N2CCN(Cc3cnc4c(c3)NC(=O)[C@@H]3CCCCN43)CC2)cc1	232.6

// returns reported melting point for input CCNC(=O)c1ccc(N2CCN(Cc3cnc4c(c3)NC(=O)[C@@H]3CSCCN43)CC2)cc1 288.9

// returns reported melting point for input N#Cc1ccc(N2CCN(Cc3cnc4c(c3)NC(=O)[C@@H]3CCCCN43)CC2)cc1 212.2

// returns reported melting point for input CCN(C)C(=O)c1ccc(N2CCN(Cc3cnc4c(c3)NC(=O)[C@@H]3CCCN43)CC2)cc1 91.9

// returns reported melting point for input N#Cc1ccc(N2CCN(Cc3cnc4c(c3)NC(=O)[C@@H]3CCCN43)CC2)c(F)c1 226

====

Target: catalytic domain of Human PARP (Homo sapiens)
Sequence (P09874 788-1014 limits assumed): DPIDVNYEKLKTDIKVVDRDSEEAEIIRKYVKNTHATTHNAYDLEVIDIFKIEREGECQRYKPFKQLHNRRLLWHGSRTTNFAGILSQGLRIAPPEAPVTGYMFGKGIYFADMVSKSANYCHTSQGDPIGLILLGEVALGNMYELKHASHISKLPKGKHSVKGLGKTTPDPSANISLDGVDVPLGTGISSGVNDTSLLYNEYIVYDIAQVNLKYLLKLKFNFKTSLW
pKd: −log10 of the molar value.
quantity_measured: pKd

API: value(readout=pKd, system=catalytic domain of Human PARP (Homo sapiens)) for record C[C@H]1C(=O)Nc2cc(CN3CC=C(c4ccc(F)cc4)CC3)cnc2N1C > 7.50

API: value(readout=pKd, system=catalytic domain of Human PARP (Homo sapiens)) for record O=C1CN(Cc2ccccc2)c2ncc(CN3CC=C(c4ccc(Cl)cc4)CC3)cc2N1 ≤ 6.00

API: value(readout=pKd, system=catalytic domain of Human PARP (Homo sapiens)) for record O=C1Nc2cc(CN3CC=C(c4ccc(Cl)cc4)CC3)cnc2N2CCSCC12 (centres unmarked) > 7.50

API: value(readout=pKd, system=catalytic domain of Human PARP (Homo sapiens)) for record C[C@H]1C(=O)Nc2cc(CN3CC=C(c4ccc(Cl)cc4)CC3)cnc2N1C > 7.50

API: value(readout=pKd, system=catalytic domain of Human PARP (Homo sapiens)) for record CCNC(=O)c1ccc(N2CCN(Cc3cnc4c(c3)NC(=O)[C@@H]3CCCN43)CC2)cc1 > 7.50

API: value(readout=pKd, system=catalytic domain of Human PARP (Homo sapiens)) for record O=C1Nc2cc(CN3CCC(c4ccc(Cl)cc4)CC3)cnc2N2CCCCC12 (centres unmarked) > 7.50

API: value(readout=pKd, system=catalytic domain of Human PARP (Homo sapiens)) for record C[C@H]1C(=O)Nc2cc(CN3CCN(c4ccc(Cl)cc4)CC3)cnc2N1C > 7.50

API: value(readout=pKd, system=catalytic domain of Human PARP (Homo sapiens)) for record C[C@H]1C(=O)Nc2cc(CN3CC=C(c4ccccc4)CC3)cnc2N1C > 7.50
